Tested on: anti-citrullinated protein autoantibodies (ACPAs)
test description: ELISA of reactive citrullinated fibrin peptides with the 20 individual sera of mixtures A and B
Assay type: binding, human
condition: serum 97.0524, dilution 1/200; best coating buffer per peptide
Where no end group is shown, it is not given here. [ ]: non-standard residue; d: D form. Cit = NC(=O)NCCC[C@H](N)C(=O)O
property label: delta OD
// print number alone

Ask: Which delta OD is listed for α501-515Cit510,512: citrullinated synthetic peptide, fibrin α-chain residues 501-515; fits SEQ ID NO: 3 SGIGTLDGFX1HX2HPD (SGIGTLDGF[Cit]H[Cit]HPD) ?
Reply: 2.85

Ask: Try β281-295Cit285,294: citrullinated synthetic peptide, fibrin β-chain residues 281-295 (second series) (VIQN[Cit]QDGSVDFG[Cit]K) next.
Reply: 0.25

Ask: Next entry: α36-50Cit38,42: citrullinated synthetic peptide, fibrin α-chain residues 36-50; fits SEQ ID NO: 2 GPX1VVEX2HQSACKDS (GP[Cit]VVE[Cit]HQSACKDS)
Reply: 3.39

Ask: Continue with α171-185Cit178,181: citrullinated synthetic peptide, fibrin α-chain residues 171-185; fits SEQ ID NO: 4 VDIDIKIX1SCX2GSCS (VDIDIKI[Cit]SC[Cit]GSCS; cysteine pairing not given here)
Reply: 0.59

---

Consider the following substances; for each one, report its delta OD.
Test system: anti-citrullinated protein autoantibodies (ACPAs)
test description: ELISA of reactive citrullinated fibrin peptides with the 20 individual sera of mixtures A and B
Type: binding, human
condition: serum 97.1795, dilution 1/50; best coating buffer per peptide
Where no end group is shown, it is not given here. [ ]: non-standard residue; d: D form. Cit = NC(=O)NCCC[C@H](N)C(=O)O
Form rule: numeric answer, no unit written next to it.

Ask: Query: delta OD; subject: α588-602Cit591: citrullinated synthetic peptide, fibrin α-chain residues 588-602 (second series) (SYN[Cit]GDSTFESKSYK)
Reply: 0.79

Ask: Next up: α36-50Cit38,42: citrullinated synthetic peptide, fibrin α-chain residues 36-50; fits SEQ ID NO: 2 GPX1VVEX2HQSACKDS (GP[Cit]VVE[Cit]HQSACKDS)
Reply: 2.29

Ask: Next substance: α171-185Cit178,181: citrullinated synthetic peptide, fibrin α-chain residues 171-185; fits SEQ ID NO: 4 VDIDIKIX1SCX2GSCS (VDIDIKI[Cit]SC[Cit]GSCS; cysteine pairing not given here)
Reply: 0.57

Ask: Same thing, different substance: β210-224Cit224: citrullinated synthetic peptide, fibrin β-chain residues 210-224 (QKLESDVSAQMEYC[Cit])
Reply: 0.49

---

Tested on: anti-citrullinated protein autoantibodies (ACPAs)
test description: ELISA of reactive citrullinated fibrin peptides with the 20 individual sera of mixtures A and B
Format: binding, human
condition: serum 97.1474, dilution 1/20; best coating buffer per peptide
Where no end group is shown, it is not given here. [ ]: non-standard residue; d: D form. Cit = NC(=O)NCCC[C@H](N)C(=O)O
Decide using delta OD alone. Strictly below 0.6: satisfied. Equal to or above 0.6: not satisfied.

Ask: Does this substance meet the criterion delta OD < 0.6? α259-273Cit263,271: citrullinated synthetic peptide, fibrin α-chain residues 259-273 (second series) (MELE[Cit]PGGNEIT[Cit]GG)
Reply: satisfied

Ask: Next record, please: α171-185Cit178,181: citrullinated synthetic peptide, fibrin α-chain residues 171-185; fits SEQ ID NO: 4 VDIDIKIX1SCX2GSCS (VDIDIKI[Cit]SC[Cit]GSCS; cysteine pairing not given here)
Reply: not satisfied

Ask: // next record α561-575Cit573: citrullinated synthetic peptide, fibrin α-chain residues 561-575 (SSHHPGIAEFPS[Cit]GK)
Reply: not satisfied

Ask: Note, next up: α36-50Cit38,42: citrullinated synthetic peptide, fibrin α-chain residues 36-50; fits SEQ ID NO: 2 GPX1VVEX2HQSACKDS (GP[Cit]VVE[Cit]HQSACKDS)
Reply: not satisfied

Ask: Please give the result for β281-295Cit285,294: citrullinated synthetic peptide, fibrin β-chain residues 281-295 (second series) (VIQN[Cit]QDGSVDFG[Cit]K) too.
Reply: satisfied

---

Tested on: anti-citrullinated protein autoantibodies (ACPAs)
test description: ELISA of reactive citrullinated fibrin peptides with the 20 individual sera of mixtures A and B
Format: binding, human
condition: serum 97.0794, dilution 1/50; best coating buffer per peptide
Where no end group is shown, it is not given here. [ ]: non-standard residue; d: D form. Cit = NC(=O)NCCC[C@H](N)C(=O)O
# true (1) = delta OD below 3 (exclusive); false (0) = delta OD at/above 3

Ask: Identify whether the substance α561-575Cit573: citrullinated synthetic peptide, fibrin α-chain residues 561-575 (SSHHPGIAEFPS[Cit]GK) records delta OD below 3.
Reply: true (1)

Ask: Entry α36-50Cit38,42: citrullinated synthetic peptide, fibrin α-chain residues 36-50; fits SEQ ID NO: 2 GPX1VVEX2HQSACKDS (GP[Cit]VVE[Cit]HQSACKDS) please
Reply: false (0)

Ask: Now the substance α501-515Cit510,512: citrullinated synthetic peptide, fibrin α-chain residues 501-515; fits SEQ ID NO: 3 SGIGTLDGFX1HX2HPD (SGIGTLDGF[Cit]H[Cit]HPD)
Reply: false (0)

Ask: Similarly, α171-185Cit178,181: citrullinated synthetic peptide, fibrin α-chain residues 171-185; fits SEQ ID NO: 4 VDIDIKIX1SCX2GSCS (VDIDIKI[Cit]SC[Cit]GSCS; cysteine pairing not given here) ?
Reply: true (1)

Ask: Next entry: β281-295Cit285,294: citrullinated synthetic peptide, fibrin β-chain residues 281-295 (second series) (VIQN[Cit]QDGSVDFG[Cit]K)
Reply: true (1)
